In this section, each of the molecules is paired with its reported MIC.
system: Aspergillus niger; test: Antifungal activity against Aspergillus niger assessed as inhibition of fungal growth incubated for 72 hrs by agar dilution method; format: functional
Readout type: MIC (µg/mL)

1) Cc1ccc(S(=O)(=O)NC(=S)Nc2nncs2)cc1 | 200
2) Clc1ccc(COC(Cn2ccnc2)c2ccc(Cl)cc2Cl)c(Cl)c1 (stereo not given) | 1.56
3) Cc1ccc(S(=O)(=O)NC(=S)Nc2nnc(CC(C)C)s2)cc1 | 50
4) Cc1ccc(S(=O)(=O)NC(=S)Nc2nnc(C(C)C)s2)cc1 | 6.25
5) Cc1ccc(S(=O)(=O)NC(=S)Nc2nnc(CCC(C)C)s2)cc1 | 0.78

====

test system: Staphylococcus epidermidis; assay: Antibacterial activity against Staphylococcus epidermidis assessed as inhibition of bacterial growth incubated for 18 to 20 hrs by microbroth dilution method; type: functional; conditions: time 18-20 hrs
Readout type: MIC (µg/mL)

1. Cc1ccc(S(=O)(=O)NC(=S)Nc2nnc(C(C)C)s2)cc1 | 1.56
2. Cc1ccc(S(=O)(=O)NC(=S)Nc2nnc(C)s2)cc1 | 100
3. Cc1ccc(S(=O)(=O)NC(=S)Nc2nnc(CC(C)C)s2)cc1 | 12.5
4. Cc1ccc(S(=O)(=O)NC(=S)Nc2nncs2)cc1 | 3.12
5. CCc1nnc(NC(=S)NS(=O)(=O)c2ccc(C)cc2)s1 | 50
6. CCCCc1nnc(NC(=S)NS(=O)(=O)c2ccc(C)cc2)s1 | 400
7. CCCCCc1nnc(NC(=S)NS(=O)(=O)c2ccc(C)cc2)s1 | 0.78
8. CN[C@H](CC(C)C)C(=O)N[C@H]1C(=O)N[C@@H](CC(N)=O)C(=O)N[C@H]2C(=O)N[C@H]3C(=O)N[C@H](C(=O)N[C@H](C(=O)O)c4cc(O)cc(O)c4-c4cc3ccc4O)[C@H](O)c3ccc(c(Cl)c3)Oc3cc2cc(c3O[C@@H]2O[C@H](CO)[C@@H](O)[C@H](O)[C@H]2O[C@H]2C[C@](C)(N)[C@H](O)[C@H](C)O2)Oc2ccc(cc2Cl)[C@H]1O | 0.78
9. CCCc1nnc(NC(=S)NS(=O)(=O)c2ccc(C)cc2)s1 | 25
10. O=C(O)c1cn(C2CC2)c2cc(N3CCNCC3)c(F)cc2c1=O | 3.12
11. Cc1ccc(S(=O)(=O)NC(=S)Nc2nnc(CCC(C)C)s2)cc1 | 6.25

====

tested on: Streptococcus pneumoniae; test: Antibacterial activity against Streptococcus pneumoniae assessed as inhibition of bacterial growth incubated for 18 to 20 hrs by microbroth dilution method; format: functional; settings: time 18-20 hrs
In this section, each of the compounds is paired with its reported log10(MIC).
Readout type: log10(MIC) (log10 of the value in µg/mL)

1) CCCCCc1nnc(NC(=S)NS(=O)(=O)c2ccc(C)cc2)s1 | 2.30
2) CCCc1nnc(NC(=S)NS(=O)(=O)c2ccc(C)cc2)s1 | 0.19
3) CCc1nnc(NC(=S)NS(=O)(=O)c2ccc(C)cc2)s1 | 0.49
4) Cc1ccc(S(=O)(=O)NC(=S)Nc2nnc(C)s2)cc1 | 1.10
5) Cc1ccc(S(=O)(=O)NC(=S)Nc2nnc(CC(C)C)s2)cc1 | -0.11
6) Cc1ccc(S(=O)(=O)NC(=S)Nc2nnc(CCC(C)C)s2)cc1 | 1.70

====

system: Aspergillus flavus; test: Antifungal activity against Aspergillus flavus assessed as inhibition of fungal growth incubated for 72 hrs by agar dilution method; type: functional
# if measured MIC < 3 µg/mL: true  # else: false

1) CCc1nnc(NC(=S)NS(=O)(=O)c2ccc(C)cc2)s1 | false
2) Cc1ccc(S(=O)(=O)NC(=S)Nc2nnc(CC(C)C)s2)cc1 | true
3) CCCCc1nnc(NC(=S)NS(=O)(=O)c2ccc(C)cc2)s1 | false
4) OC(Cn1cncn1)(Cn1cncn1)c1ccc(F)cc1F [FLUCONAZOLE] | true
5) Cc1ccc(S(=O)(=O)NC(=S)Nc2nnc(C)s2)cc1 | false
6) CCCc1nnc(NC(=S)NS(=O)(=O)c2ccc(C)cc2)s1 | true
7) CCCCCc1nnc(NC(=S)NS(=O)(=O)c2ccc(C)cc2)s1 | false
8) Clc1ccc(COC(Cn2ccnc2)c2ccc(Cl)cc2Cl)c(Cl)c1 (stereo unspecified) [MICONAZOLE] | true
9) Cc1ccc(S(=O)(=O)NC(=S)Nc2nnc(C(C)C)s2)cc1 | false
10) Cc1ccc(S(=O)(=O)NC(=S)Nc2nnc(CCC(C)C)s2)cc1 | false
11) Cc1ccc(S(=O)(=O)NC(=S)Nc2nncs2)cc1 | false

====

In this section, each of the molecules is paired with its reported MIC.
system: Mycobacterium tuberculosis; test: Antitubercular activity against Mycobacterium tuberculosis H37Rv assessed as inhibition of bacterial growth incubated for 24 hrs by two-fold dilution method; format: functional
Readout type: MIC (µM)

1. NNC(=O)c1ccncc1 | 17.8
2. Fc1ccc(NC(=S)Nc2nnc(-c3ccc(F)cc3)s2)cc1 | 10.9
3. FC(F)(F)c1cc(NC(=S)Nc2nnc(-c3ccc(Cl)cc3)s2)ccc1Cl | 10.9
4. Fc1ccc(NC(=S)Nc2nnc(-c3ccc(Cl)cc3)s2)cc1 | 11
5. CC[C@@H](CO)NCCN[C@@H](CC)CO | 11.5

====

test system: Clostridioides difficile; experiment: Antibacterial activity against Clostridium difficile assessed as inhibition of bacterial growth incubated for 18 to 20 hrs by microbroth dilution method; format: functional; settings: time 18-20 hrs
Readout type: MIC (µg/mL)

1) CCc1nnc(NC(=S)NS(=O)(=O)c2ccc(C)cc2)s1 | 0.78
2) Cc1ccc(S(=O)(=O)NC(=S)Nc2nncs2)cc1 | 200
3) CCCCCc1nnc(NC(=S)NS(=O)(=O)c2ccc(C)cc2)s1 | 12.5

====

target: DNA topoisomerase 4 subunit B (Staphylococcus aureus, UniProt P0C1S7); test: Inhibition of Staphylococcus aureus DNA topoisomerase 4 subunit B ATPase activity using relaxed pNO1 plasmid as substrate incubated for 30 mins by microplate reader analysis
Sequence (P0C1S7 whole entry): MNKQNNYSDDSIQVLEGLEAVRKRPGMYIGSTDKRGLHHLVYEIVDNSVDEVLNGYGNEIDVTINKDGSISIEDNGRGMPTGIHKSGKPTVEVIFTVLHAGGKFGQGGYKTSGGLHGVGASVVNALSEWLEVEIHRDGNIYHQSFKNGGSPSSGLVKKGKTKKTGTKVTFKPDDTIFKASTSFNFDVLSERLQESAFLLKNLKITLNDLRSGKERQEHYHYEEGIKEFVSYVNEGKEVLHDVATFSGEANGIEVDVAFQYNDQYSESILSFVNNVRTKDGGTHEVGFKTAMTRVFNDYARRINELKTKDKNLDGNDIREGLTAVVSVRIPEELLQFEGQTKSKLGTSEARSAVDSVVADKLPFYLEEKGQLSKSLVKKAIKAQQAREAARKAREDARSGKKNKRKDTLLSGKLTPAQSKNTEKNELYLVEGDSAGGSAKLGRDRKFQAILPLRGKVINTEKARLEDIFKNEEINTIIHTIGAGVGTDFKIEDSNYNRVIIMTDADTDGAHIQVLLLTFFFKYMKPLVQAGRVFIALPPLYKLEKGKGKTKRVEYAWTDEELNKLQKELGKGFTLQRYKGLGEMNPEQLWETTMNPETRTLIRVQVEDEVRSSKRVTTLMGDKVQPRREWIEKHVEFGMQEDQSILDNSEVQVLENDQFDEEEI
pIC50: −log10 of the molar value.
Readout type: pIC50

1) Cc1ccc(S(=O)(=O)NC(=S)Nc2nnc(CCC(C)C)s2)cc1 | 4.18
2) CCc1nnc(NC(=S)NS(=O)(=O)c2ccc(C)cc2)s1 | 4.11
3) Cc1ccc(S(=O)(=O)NC(=S)Nc2nncs2)cc1 | 4.17
4) CCCCCc1nnc(NC(=S)NS(=O)(=O)c2ccc(C)cc2)s1 | 4.27

====

In this section, each of the molecules is paired with its reported MIC.
tested on: Clostridioides difficile; assay: Antibacterial activity against Clostridium difficile assessed as inhibition of bacterial growth incubated for 18 to 20 hrs by microbroth dilution method; assay type: functional; conditions: time 18-20 hrs
Readout type: MIC (µg/mL)

1. CCCc1nnc(NC(=S)NS(=O)(=O)c2ccc(C)cc2)s1 | 25
2. Cc1ccc(S(=O)(=O)NC(=S)Nc2nnc(C(C)C)s2)cc1 | 50
3. CCCCc1nnc(NC(=S)NS(=O)(=O)c2ccc(C)cc2)s1 | 400
4. Cc1ccc(S(=O)(=O)NC(=S)Nc2nnc(C)s2)cc1 | 6.25
5. Cc1ccc(S(=O)(=O)NC(=S)Nc2nnc(CCC(C)C)s2)cc1 | 1.56
6. CN[C@H](CC(C)C)C(=O)N[C@H]1C(=O)N[C@@H](CC(N)=O)C(=O)N[C@H]2C(=O)N[C@H]3C(=O)N[C@H](C(=O)N[C@H](C(=O)O)c4cc(O)cc(O)c4-c4cc3ccc4O)[C@H](O)c3ccc(c(Cl)c3)Oc3cc2cc(c3O[C@@H]2O[C@H](CO)[C@@H](O)[C@H](O)[C@H]2O[C@H]2C[C@](C)(N)[C@H](O)[C@H](C)O2)Oc2ccc(cc2Cl)[C@H]1O | 1.56
7. Cc1ccc(S(=O)(=O)NC(=S)Nc2nnc(CC(C)C)s2)cc1 | 3.12
